Reference source for all entries: ChEMBL document CHEMBL2028040

test system: Leishmania infantum; experiment: MMV: Inhibition of Leishmania infantum (MHOM/MA/BE/67) in vitro.; type: functional, organism-based
IC50 values for the compounds below.
Output spec: scalar in µM, unitless text.

Some compounds with recorded IC50:
- COMPOUND: "CCN(CC)CCCNc1nc(-c2ccc(Cl)cc2)nc2ccccc12"
  IC50 (µM): 4
- COMPOUND: "COc1cccc(O)c1CN1CCC2(CCCN(Cc3ccc(F)cc3)C2)C1 (stereo unspecified)"
  IC50 (µM): 10.1
- COMPOUND: "Cn1c(C(=O)c2cccc3ccccc23)nc2ccccc21"
  IC50 (µM): 16
- COMPOUND: "COc1cc2c3cc1Oc1c(OC)c(OC)cc4c1C(Cc1ccc(O)c(c1)Oc1ccc(cc1)CC3N(C)CC2)N(C)CC4 (stereo unspecified)"
  IC50 (µM): 12
- COMPOUND: "CCn1c(CN2CCN(Cc3ccccc3)CC2)nc2cc(NC(=O)c3cccs3)ccc21"
  IC50 (µM): 22.6
- COMPOUND: "CCCCCn1c(=N)n(CC(O)COc2cccc(C)c2)c2ccccc21 (stereo unspecified)"
  IC50 (µM): 3.41
- COMPOUND: "Cc1ccc(Nc2nc(-c3ccccn3)cs2)cc1"
  IC50 (µM): 5.38

Q: Value lookup for IC50; key = OC(CNC1CCCC1)Cn1c2ccccc2c2ccccc21 (stereo unspecified)
A: 5.38
